Molecular target: UniProt Q08857
Sequence (Q08857 whole entry): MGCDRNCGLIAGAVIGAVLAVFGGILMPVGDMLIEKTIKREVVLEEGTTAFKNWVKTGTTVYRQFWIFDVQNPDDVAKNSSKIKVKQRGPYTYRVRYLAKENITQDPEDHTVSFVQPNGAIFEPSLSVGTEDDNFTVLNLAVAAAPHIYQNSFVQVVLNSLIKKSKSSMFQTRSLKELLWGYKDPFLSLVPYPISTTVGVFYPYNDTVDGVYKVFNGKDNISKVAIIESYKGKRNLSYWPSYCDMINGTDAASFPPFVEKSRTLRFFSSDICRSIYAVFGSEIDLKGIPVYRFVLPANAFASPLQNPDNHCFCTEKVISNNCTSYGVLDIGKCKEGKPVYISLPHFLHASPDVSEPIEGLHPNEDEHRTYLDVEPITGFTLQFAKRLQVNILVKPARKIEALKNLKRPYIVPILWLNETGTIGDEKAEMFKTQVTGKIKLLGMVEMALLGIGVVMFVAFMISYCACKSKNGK
Test: Modulation activity at CD36 in mouse J774 cells assessed as promotion of cholesterol efflux at 100 nM pre-incubated for 17 hrs before apolipoprotein A-I addition for 4 hrs by fluorescent-labeled cholesterol kit based assay relative to control
Format: cell-based
MEASURED_ATTRIBUTE: Activity (%)
Give bare numbers, in %.

Example entries begin here.
Bench note: what Activity did `C=CCN1CC#CCN(NC(=O)[C@H](C)N)C(=O)N[C@H](Cc2c[nH]c3ccccc23)C(=O)N[C@@H](C)C(=O)N[C@@H](Cc2c[nH]c3ccccc23)C(=O)N[C@H](Cc2ccccc2)C(=O)N[C@H](C(N)=O)CCCC1` show?
11

What value of Activity has been reported for the following molecule? `C=CCN1CC#CCN(NC(=O)[C@H](C)N)C(=O)N[C@@H](C)C(=O)N[C@@H](Cc2c[nH]c3ccccc23)C(=O)N[C@H](Cc2ccccc2)C(=O)N[C@H](C(N)=O)CCCC1`
6

Activity for `C=CCN1CC#CC[C@H](NC(=O)[C@H](C)N)C(=O)N[C@H](Cc2c[nH]c3ccccc23)C(=O)N[C@@H](C)C(=O)N[C@@H](Cc2c[nH]c3ccccc23)C(=O)N[C@H](Cc2ccccc2)C(=O)N[C@H](C(N)=O)CCCC1` ?
7

Let us move to another entry and its Activity.
Please report the recorded Activity for `C=CCN1CC#CC[C@H](NC(=O)[C@H](C)N)C(=O)N[C@@H](C)C(=O)N[C@@H](Cc2c[nH]c3ccccc23)C(=O)N[C@H](Cc2ccccc2)C(=O)N[C@H](C(N)=O)CCCC1` .
13

---

Please go through the items and note down their IC50.
Target: Platelet glycoprotein 4 (Rattus norvegicus) (UniProt Q07969)
Sequence (Q07969 whole entry): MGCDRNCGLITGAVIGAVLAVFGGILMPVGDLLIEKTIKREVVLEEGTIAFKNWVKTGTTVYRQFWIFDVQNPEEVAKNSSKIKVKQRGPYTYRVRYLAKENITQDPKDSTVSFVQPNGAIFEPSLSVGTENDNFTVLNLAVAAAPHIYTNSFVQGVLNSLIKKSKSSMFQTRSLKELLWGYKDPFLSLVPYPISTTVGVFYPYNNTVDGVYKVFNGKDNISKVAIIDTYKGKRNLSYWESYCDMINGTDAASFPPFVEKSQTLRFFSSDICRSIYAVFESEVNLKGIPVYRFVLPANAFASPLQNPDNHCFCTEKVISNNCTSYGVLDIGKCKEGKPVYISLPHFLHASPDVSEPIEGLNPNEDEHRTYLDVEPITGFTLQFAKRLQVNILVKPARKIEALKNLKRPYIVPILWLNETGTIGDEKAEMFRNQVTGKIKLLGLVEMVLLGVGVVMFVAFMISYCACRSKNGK
Test: Displacement of photoactivated [125I]-Tyr-Bpa-Ala-hexarelin from CD36 in rat heart purified membranes
Numbers only, in nM.

Any idea what IC50 was measured for `C=CCN1CC#CC[C@H](NC(=O)[C@H](C)N)C(=O)N[C@H](Cc2c[nH]c3ccccc23)C(=O)N[C@@H](C)C(=O)N[C@@H](Cc2c[nH]c3ccccc23)C(=O)N[C@H](Cc2ccccc2)C(=O)N[C@H](C(N)=O)CCCC1` ?
660

I would be grateful if you could share the reported IC50 for `C=CCN1CC#CCN(NC(=O)[C@H](C)N)C(=O)N[C@H](Cc2c[nH]c3ccccc23)C(=O)N[C@@H](C)C(=O)N[C@@H](Cc2c[nH]c3ccccc23)C(=O)N[C@H](Cc2ccccc2)C(=O)N[C@H](C(N)=O)CCCC1` .
80

I am curious: what IC50 value has been reported for `C=CCN1CC#CC[C@@H](NC(=O)[C@H](C)N)C(=O)N[C@@H](C)C(=O)N[C@@H](Cc2c[nH]c3ccccc23)C(=O)N[C@H](Cc2ccccc2)C(=O)N[C@H](C(N)=O)CCCC1` ?
3320

Entry `C=CCN1CC#CC[C@H](NC(=O)[C@H](C)N)C(=O)N[C@@H](C)C(=O)N[C@@H](Cc2c[nH]c3ccccc23)C(=O)N[C@H](Cc2ccccc2)C(=O)N[C@H](C(N)=O)CCCC1` : reported IC50 = ?
1470

Look up IC50: `C=CCN1CC#CCN(NC(=O)[C@H](C)NC(C)=O)C(=O)N[C@H](Cc2c[nH]c3ccccc23)C(=O)N[C@@H](C)C(=O)N[C@@H](Cc2c[nH]c3ccccc23)C(=O)N[C@H](Cc2ccccc2)C(=O)N[C@H](C(N)=O)CCCC1`
670

Would you mind giving IC50 for every compound in the list below?
1. C=CCN1CC#CC[C@@H](NC(=O)[C@H](C)N)C(=O)N[C@H](Cc2c[nH]c3ccccc23)C(=O)N[C@@H](C)C(=O)N[C@@H](Cc2c[nH]c3ccccc23)C(=O)N[C@H](Cc2ccccc2)C(=O)N[C@H](C(N)=O)CCCC1
2. C=CCN1CC#CCN(NC(=O)[C@H](C)N)C(=O)N[C@@H](C)C(=O)N[C@@H](Cc2c[nH]c3ccccc23)C(=O)N[C@H](Cc2ccccc2)C(=O)N[C@H](C(N)=O)CCCC1

[1040, 240]
